# GI50 per entry
test system: HS 578T breast; test: NCI tumour cell line growth inhibition, 48 h

molecule	system	reported.measurement
COc1ccc(Cn2cc3c(c2-c2cc(OC)c(OC)c(OC)c2)CCc2cnoc2-3)cc1	HS 578T breast	0.238 µM
Cc1cc(C(=O)c2ccccc2)c(C)c2c1[nH]c1ccc(Cl)cc12	HS 578T breast	0.0501 µM
O=C1C(Cl)=C(Nc2cccc(C(F)(F)F)c2)C(=O)N1Cc1ccc(Cl)cc1	HS 578T breast	0.711 µM
CS(=O)(=O)N(c1cc(-c2ccc3ncnc(Nc4cccc(Cl)c4)c3c2)cnc1Cl)S(C)(=O)=O	HS 578T breast	0.236 µM

Using the record for `CCN(CC)C(=S)[S][Bi]([S]C(=S)N(CC)CC)[S]C(=S)N(CC)CC` , report its GI50.
2.64 µM

Given the entry `CC1=NN(c2nc(N)nc(/C=C\c3ccc([N+](=O)[O-])s3)n2)C(C)(C)C1` , report its measured GI50.
> 100 µM

// query GI50 value for entry `O=C(NC(=S)Nc1cc(Cl)ccc1O)c1cccc(Br)c1`
6.85 µM

Consider the molecule shown here: `COc1cc(NC(=O)C2=C(N3CCOCC3)/C(=C/c3ccc(Cl)cc3)CC2)cc(OC)c1OC` What is its recorded GI50?
3.97 µM

For the molecule shown here, `CCN(CC)c1ccc(/C=C/C=C2\NC(=O)NC2=O)cc1` , give the reported GI50.
3.91 µM

Request the reported GI50 associated with CCSc1ccc(C2C(Br)C(=O)N2c2cc(OC)c(OC)c(OC)c2)cc1 (stereo not drawn)
0.229 µM

Which GI50 is reported for this molecule? `Cc1c(Cl)cccc1NC(=O)c1sc2nc3c(cc2c1N)CCCCC3`
0.227 µM

Endpoint output: GI50 of `O=c1ccc2nc(-c3ccccn3)nn(-c3ccccc3)c-2c1` . Value?
2.85 µM

Dear colleague, I am looking for the recorded GI50 of the following molecule: `O=Nc1c(-c2c(O)[nH]c3ccc(Br)cc23)[nH]c2ccccc12`
3.03 µM

---

test system: OVCAR-4 ovarian; assay: NCI tumour cell line growth inhibition, 48 h
Recorded TGI values for a group of molecules are listed next.
Write the value in µM as a bare number.

Recorded TGI, per entry:
C[C@@H](Nc1nc(Nc2ccc(F)c(Cl)c2)nc2ccccc12)C1CC1 12.9
O=c1c2ccccc2nc(N/N=C/c2ccccc2O)n1-c1ccccc1 43.2

Now look at this one.
Return reported TGI; argument: `COc1ccc(-c2nn(-c3ccc(NC(=O)Nc4ccc(Cl)c(C(F)(F)F)c4)cc3)cc2-c2ccncc2)cc1Cl`
21.9

---

test system: CAKI-1 renal; assay: NCI tumour cell line growth inhibition, 48 h
Collected TGI values appear next to each entry.

compound	TGI
C[C@H]1COC2=C1C(=O)C(=O)c1c2ccc2c1CCCC2(C)C	> 54.9 µM
CC(=O)c1nc2ccccc2n1CC(=O)c1cccc(Cl)c1	> 20.1 µM
COc1ccc(Nc2nc(N)c(C(=O)c3cccs3)s2)cc1	> 100 µM
CC[C@H](C)C(=O)O[C@H]1C[C@H](O)C=C2C=C[C@H](C)[C@H](CC[C@@H](O)C[C@@H](O)CC(=O)O)[C@H]21	> 100 µM
C[N+](C)(CCNC(=O)c1cccc2cc3ccccc3nc12)Cc1ccc([N+](=O)[O-])s1	> 25 µM

So what does the record say about TGI for COc1cc(CS(=O)c2ccc(O)cc2)cc(OC)c1OC (stereo unspecified) ?
> 100 µM

Request the reported TGI associated with `O=C(O)C(Oc1nc(=S)[nH]c(=S)[nH]1)(c1ccc(Cl)cc1)c1ccc(Cl)cc1`
> 100 µM

# get_value(readout='TGI', item= CCC(NC1=NCCO1)c1cccs1 (stereo unspecified) )
30.9 µM

Which measured TGI value corresponds to `Cc1ccc(NC(=O)CSC(N)=O)cc1C` ?
> 100 µM

What value of TGI has been recorded for this entry: `CC1=NN(c2nc(N)nc(CF)n2)C(C)(C)C1`
> 100 µM

For `Cc1ccc(N=C2C(=Nc3ccc(C)cc3)N(c3ccc(C)cc3)C(=S)N2C(=O)c2ccccc2)cc1` , what is its reported TGI?
> 100 µM

Bench note: what TGI did NC(N)=NCCCC(NC(=O)OCCCCn1ccc(N)nc1=O)C(=O)O (stereo unspecified) show?
> 100 µM

// returns reported TGI for input `C=C(c1ccccc1)c1ccccc1-c1cc(-c2ccccc2)cc(-c2ccccc2)n1`
> 100 µM

Item `CC(=O)c1cc(O)c2ccccc2c1O` has what recorded TGI?
30.2 µM

What value of TGI has been recorded for this entry: `COc1ccc(Cn2cc3c(c2-c2cc(OC)c(OC)c(OC)c2)CCc2cnoc2-3)cc1`
> 100 µM

---

system: SNB-75 CNS; assay: NCI tumour cell line growth inhibition, 48 h; in the data active = GI50 below about 0.43 µM; inactive = the rest
Classes to choose from: active, inactive

O=Nc1c(-c2c(O)[nH]c3ccc(Br)cc23)[nH]c2ccccc12 inactive
C[C@@H](Nc1nc(Nc2ccc(F)c(Cl)c2)nc2ccccc12)C1CC1 inactive
O=C(CCCCC(=O)N/N=C\c1ccccc1O)N/N=C\c1ccccc1O inactive
COc1c(B(O)O)cc(F)cc1-c1nc2ccc3[nH]ncc3c2c2c1CCCC2 active

Here is another molecule to look at.
Please share the test call associated with `O=C(c1ccccc1)c1c(C(F)(F)F)n([O-])c2ccc(C(F)(F)F)cc2[n+]1=O` .
inactive

---

test system: HL-60(TB) leukemia; experiment: NCI tumour cell line growth inhibition, 48 h
test.readout: TGI

compound	system	reported.measurement
CC(C)=CC(=O)Cc1nc2ccc([N+](=O)[O-])cc2[nH]c1=O	HL-60(TB) leukemia	> 100 µM
COc1cc(CS(=O)c2ccc(O)cc2)cc(OC)c1OC (stereo not given)	HL-60(TB) leukemia	> 100 µM
C=C1CN(C2=NCCO2)C1	HL-60(TB) leukemia	> 100 µM
CC1=C(C)C(=O)C(C2=CC(=O)C=CC2=O)=C(C2=CC(=O)C=CC2=O)C1=O	HL-60(TB) leukemia	> 100 µM
NC(N)=NCCCC(NC(=O)OCCCCn1ccc(N)nc1=O)C(=O)O (stereo not given)	HL-60(TB) leukemia	> 100 µM

Query: TGI; subject: `CC(=O)[CH-]C(=O)c1ccccc1.CC(=O)[CH-]C(=O)c1ccccc1.CC[O-].O=C1c2ccccc2C(=O)c2c1ccc(O)c2[O-].[Ti+4]`
56.6 µM

Returns the measured TGI for the input compound. Input: C[C@]12CCC(=O)C=C1CC[C@@H]1C2CC[C@]2(C)c3nn(-c4ccccc4)nc3CC12 (stereo not given in full)
> 100 µM

For the compound shown here, `Cc1nc2ccccc2c(/C=C/c2ccc(Cl)cc2)c1C(=O)/C=C/c1ccccc1` , give the reported TGI.
4.58 µM

Entry `C[N+](C)(CCNC(=O)c1cccc2cc3ccccc3nc12)Cc1ccc([N+](=O)[O-])s1` has what TGI?
> 25 µM

Using the record for `Oc1ccc(N=Nc2ccccn2)c(O)c1` , report its TGI.
8.75 µM

---

system: SK-OV-3 ovarian; assay: NCI tumour cell line growth inhibition, 48 h; in the data active = GI50 below about 0.43 µM; inactive = the rest
Respond only with the outcome that fits, drawn from Yes = active, No = inactive

For `CC1(C)C(=O)/C(=C\c2cccnc2)C[C@]2(C)[C@H]3CC[C@@H]4[C@@H](C(=O)/C=C/c5ccncc5)CC[C@@]4(C)[C@]3(C)CC[C@@H]12` , which call appears in the assay record?
No

---

test system: HL-60(TB) leukemia; test: NCI tumour cell line growth inhibition, 48 h
test.readout: TGI

Worked examples, 5 compounds total:
compound	system	TGI
COc1ccc2c(c1)OC[C@@H]1c3cc(O)c(OCc4ccccc4)cc3O[C@H]21	HL-60(TB) leukemia	52 µM
Cn1cc(C2=C(N3CCOCC3)C(=O)NC2=O)c2ccccc21	HL-60(TB) leukemia	> 25 µM
NNC(=O)C(=O)N/N=C(\CCC(=O)Nc1ccc(Cl)cc1)Cc1nc2ccccc2s1	HL-60(TB) leukemia	> 100 µM
CCC(NC1=NCCO1)c1cccs1 (stereo unspecified)	HL-60(TB) leukemia	82.7 µM
CC1=NN(c2nc(N)nc(/C=C\c3ccc([N+](=O)[O-])s3)n2)C(C)(C)C1	HL-60(TB) leukemia	> 100 µM

For the next question, use this compound.
Form entry - test system: HL-60(TB) leukemia; read-out: TGI; compound: O=NN(CCCl)C(=O)NC1CCC(CC2CCC(NC(=O)N(CCCl)N=O)CC2)CC1 (stereo unspecified)
> 100 µM

---

In this section, each of the compounds is paired with its reported TGI.
system: A498 renal; assay: NCI tumour cell line growth inhibition, 48 h
Kindly provide the numeric value in µM only, without the unit symbol.

Check out these entries, answers already filled in.
compound	TGI (µM)
NCCCNCCCCN1CC1	2.14
CC(C)(C)[Si](C)(C)OCC1OC(n2cnc3c(=O)[nH]c(N)nc32)C(O[Si](C)(C)C(C)(C)C)C1O[Si](C)(C)C(C)(C)C (stereo unspecified)	6.21
Cc1c(Cl)cccc1NC(=O)c1sc2nc3c(cc2c1N)CCCCC3	19.3
O=c1ccc2nc(-c3ccccn3)nn(-c3ccccc3)c-2c1	27.2
CN(Cc1cc(Cl)c(Cl)cc1NC(=O)CN)[C@H]1CCCC[C@@H]1N1CCCC1	41.5

If you can, please state the reported TGI value of `S=c1[nH]c2ccc(I)cc2c(=S)n1Cc1ccccc1` .
55.4
